Test system: KM12 colon
Test: NCI tumour cell line growth inhibition, 48 h; in the data active = GI50 below about 0.43 µM; inactive = the rest
Respond with a class label; see 1 (yes) = active, 0 (no) = inactive

- Molecule: "CCN(CCNc1ccc(C)c2sc3cc(Cl)ccc3c(=O)c12)CC(C)O (centres undefined)"
  Assigned label: "0 (no)"
- Molecule: "O=C(CCCCCCSc1nc(-c2ccccc2)cc(-c2ccccc2)n1)NO"
  Assigned label: "0 (no)"
- Molecule: "Cn1c(=O)c(Oc2ccc(F)cc2F)cc2cnc(NC(CO)CO)nc21"
  Assigned label: "0 (no)"

// return assay outcome for CCc1cccc2c3c(sc12)C(c1ccc(Cl)cc1)C(C#N)=C(N)O3 (centres undefined)
0 (no)

For this molecule, state the assay outcome: C/C(=C\c1ccn(-c2ccc(N)c(F)c2)n1)[C@@H]1C[C@@H]2O[C@]2(C)CCC[C@H](C)[C@H](O)[C@@H](C)C(=O)C(C)(C)[C@@H](O)CC(=O)O1
1 (yes)

Short answer needed: outcome of this test for Cc1ccc(/C=C2/SC(Nc3nc(-c4nc(NC5=NC(=O)/C(=C\c6ccc(C)cc6)S5)sc4C)c(C)s3)=NC2=O)cc1 ?
1 (yes)

Please let me know the test result on file for Cc1nn(-c2ccccc2)c2c1CC(=O)Nc1ccccc1-2 .
1 (yes)

Fill in: this test's call for N=c1c2c(-c3ccccc3)c(-c3ccccc3)n(Cc3ccccc3)c2ncn1CCCO is ___
0 (no)

Query: recorded result category for O=C(/C=C/c1cccs1)c1ccc(Nc2nc(Nc3ccc(F)cc3)nc(Nc3ccc(F)cc3)n2)cc1 in this test
0 (no)

* * *

Tested on: LOX IMVI melanoma
Assay: NCI tumour cell line growth inhibition, 48 h; in the data active = GI50 below about 0.43 µM; inactive = the rest
Choose the fitting class; nothing outside Y for active, N for inactive is accepted.

Solved cases (5 shown):
- Structure smiles string: "COc1ccc(C/C(C)=C(\\c2ccc(OCCN3CCOCC3)cc2)c2ccc(OC(=O)Cc3ccccc3)cc2)cc1"
  Assigned label: "N"
- Structure smiles string: "CCN1CCN(CC(=O)Nc2nc3ccc(NCc4ccc(Cl)cc4)cc3s2)CC1"
  Assigned label: "N"
- Structure smiles string: "CCCCCCC#Cc1ccccc1C#CCO"
  Assigned label: "N"
- Structure smiles string: "Cn1ccc2c(c1=O)C(=O)c1nccc3c1c-2nc1ccccc13"
  Assigned label: "N"
- Structure smiles string: "COc1cc2c3c(n(CCCNCC(OC)OC)c(=O)c2cc1OC)-c1cc2c(cc1C3=O)OCO2"
  Assigned label: "N"

For Cn1c(=O)c(Oc2ccc(F)cc2F)cc2cnc(NC(CO)CO)nc21 , which call appears in the assay record?
N

For this compound, state the assay outcome: O=C1c2ccc3c4c5ccc(c24)C(=O)N1CCCOCCCCOCCCNCc1ccc(cc1)CNCCCOCCCCOCCCN(C3=O)C5=O
N

What did the test return for N#Cc1c(N)nc(N2CCOCC2)c(C#N)c1-c1ccc(Cl)cc1 ?
N

Tell me the recorded outcome of this test for Cc1nc2cnc3cc(F)c(-c4ccc(Oc5ncccn5)cc4Cl)cc3c2n1[C@H]1CCN(C(=O)CO)C[C@@H]1F .
Y

* * *

Test system: A498 renal
Experiment: NCI tumour cell line growth inhibition, 48 h; in the data active = GI50 below about 0.43 µM; inactive = the rest
Response enum: Y (active), N (inactive)

Can you look up the reported call for C=CCNCCCN1C(=O)c2ccc3c4c(ccc(c24)C1=O)C(=O)N(CCCNCC=C)C3=O for me?
Y
